Data origin, for the record: patent US5618829A

Target: EGF receptor (Homo sapiens, UniProt P00533)
Construct: The cell membrane fraction, a partially purified EGF receptor, was used as an enzyme source; endogenous in cells; host or cells: A431 (human epidermoid carcinoma), cell membrane fraction
Sequence (P00533 25-1210): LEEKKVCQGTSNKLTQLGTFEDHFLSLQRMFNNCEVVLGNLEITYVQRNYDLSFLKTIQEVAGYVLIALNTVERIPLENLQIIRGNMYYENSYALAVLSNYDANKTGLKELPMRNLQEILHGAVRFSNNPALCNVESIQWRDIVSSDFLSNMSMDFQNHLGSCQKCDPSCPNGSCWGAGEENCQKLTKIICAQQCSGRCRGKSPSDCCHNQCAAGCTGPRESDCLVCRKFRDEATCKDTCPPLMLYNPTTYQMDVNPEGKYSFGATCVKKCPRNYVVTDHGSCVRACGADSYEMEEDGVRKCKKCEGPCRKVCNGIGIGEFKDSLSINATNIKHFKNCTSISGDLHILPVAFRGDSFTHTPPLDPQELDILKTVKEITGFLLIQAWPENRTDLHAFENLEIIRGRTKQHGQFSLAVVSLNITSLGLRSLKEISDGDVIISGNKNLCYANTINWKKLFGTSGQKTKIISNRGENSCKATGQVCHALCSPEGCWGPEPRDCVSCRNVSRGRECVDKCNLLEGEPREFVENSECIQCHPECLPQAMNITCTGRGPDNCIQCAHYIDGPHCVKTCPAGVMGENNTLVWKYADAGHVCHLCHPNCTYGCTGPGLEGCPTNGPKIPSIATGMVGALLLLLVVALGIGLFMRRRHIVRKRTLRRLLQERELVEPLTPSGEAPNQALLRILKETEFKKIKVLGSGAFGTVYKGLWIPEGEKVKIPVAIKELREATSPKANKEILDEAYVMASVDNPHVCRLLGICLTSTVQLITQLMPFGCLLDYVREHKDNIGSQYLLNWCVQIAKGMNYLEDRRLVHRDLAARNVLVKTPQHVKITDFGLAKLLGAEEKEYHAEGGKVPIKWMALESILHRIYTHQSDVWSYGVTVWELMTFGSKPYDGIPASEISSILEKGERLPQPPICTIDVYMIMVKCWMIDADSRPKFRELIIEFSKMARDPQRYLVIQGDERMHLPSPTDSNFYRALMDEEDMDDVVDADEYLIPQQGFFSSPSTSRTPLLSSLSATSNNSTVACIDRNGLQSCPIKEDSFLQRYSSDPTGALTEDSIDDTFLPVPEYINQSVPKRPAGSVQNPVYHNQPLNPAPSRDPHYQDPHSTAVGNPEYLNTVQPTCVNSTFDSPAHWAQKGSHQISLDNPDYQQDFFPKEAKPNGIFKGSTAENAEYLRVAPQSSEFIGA
Assay: Tyrosine kinase inhibitory activity (partially purified EGF receptor from A431 cell membrane fraction, RR-SRC peptide substrate)
Type: biochemical
Settings: partially purified EGF receptor from A431 cells, 100 ng EGF, 10 μM γ-32P-ATP, 30 minutes under ice-cooling
Metric Name: log10 of IC50 (log10 of the value in µM)
Note the log scale: values are log10 of IC50 expressed in µM.

> print(dat)
                             smiles.code    metric.name  number
1   COc1ccc(C(=O)/C=C/C(=O)Nc2ccccc2)cc1  log10 of IC50    0.34
2  COc1cc(C(=O)/C=C/C(=O)Nc2ccccc2)ccc1O  log10 of IC50    0.18

Missing value: log10 of IC50, EGF receptor (Homo sapiens, UniProt P00533), entry "COc1ccc(C(=O)/C=C/C(N)=O)cc1OC" . Fill in? -0.49

Missing value: log10 of IC50, EGF receptor (Homo sapiens, UniProt P00533), entry "COc1cc(C(=O)/C=C/C(=O)Nc2ccccc2)ccc1OCc1ccccc1" . Fill in? 1.11

Missing value: log10 of IC50, EGF receptor (Homo sapiens, UniProt P00533), entry "COc1cc(C(=O)/C=C/C(=O)Nc2ccccc2)ccc1OC(F)F" . Fill in? 0.18

Missing value: log10 of IC50, EGF receptor (Homo sapiens, UniProt P00533), entry "COc1ccc(C(=O)/C=C/C(=O)NC(=O)c2ccccc2)cc1OC" . Fill in? -0.04

Missing value: log10 of IC50, EGF receptor (Homo sapiens, UniProt P00533), entry "COc1ccc(C(=O)/C=C/C(=O)Nc2cccc(C)c2)cc1OC" . Fill in? -0.09

Missing value: log10 of IC50, EGF receptor (Homo sapiens, UniProt P00533), entry "COc1ccc(C(=O)/C=C/C(=O)Nc2ccccc2)cc1OC" . Fill in? -0.27

Missing value: log10 of IC50, EGF receptor (Homo sapiens, UniProt P00533), entry "COc1ccc(C(=O)/C=C/C(=O)NCc2ccccc2)cc1OC" . Fill in? -0.10
